We begin with a simple list: items and their reported MFI.
target: T1, human TMEM106B (human, UniProt Q9NUM4 2-274); experiment: FACS U251;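 further: flow cytometry of cells exposed to antibody (purified at 10 µg/mL, or hybridoma supernatant) for 1 h on ice, with propidium iodide-positive dead cells gated out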
T1 construct: Full-length, on transiently transfected HEK293 cells, or natively expressed on HeLa, U251 and A549 cells; also called huTMEM106B; huTMEM
Just the number.

Prompt line: What MFI value was documented for this binder, anti-TMEM106B antibody TM-27 (antibody, V domains shown) VH: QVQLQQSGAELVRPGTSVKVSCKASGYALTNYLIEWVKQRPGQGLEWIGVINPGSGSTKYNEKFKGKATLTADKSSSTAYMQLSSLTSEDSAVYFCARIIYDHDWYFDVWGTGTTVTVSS VL: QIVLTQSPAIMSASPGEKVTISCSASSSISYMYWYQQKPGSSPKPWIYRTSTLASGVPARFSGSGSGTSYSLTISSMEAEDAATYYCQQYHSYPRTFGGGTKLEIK ?
Response line: 1320

Prompt line: What MFI value was documented for this binder, anti-TMEM106B antibody TM-10 (antibody, V domains shown) VH: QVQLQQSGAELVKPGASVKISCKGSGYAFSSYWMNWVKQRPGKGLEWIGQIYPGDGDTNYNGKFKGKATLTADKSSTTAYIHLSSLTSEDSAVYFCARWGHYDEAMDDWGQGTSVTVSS VL: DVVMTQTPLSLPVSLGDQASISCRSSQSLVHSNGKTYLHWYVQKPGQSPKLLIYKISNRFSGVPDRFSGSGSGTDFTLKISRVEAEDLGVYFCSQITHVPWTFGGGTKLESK ?
Response line: 328

Prompt line: What MFI value was documented for this binder, anti-TMEM106B antibody TM-5 (antibody, V domains shown) VH: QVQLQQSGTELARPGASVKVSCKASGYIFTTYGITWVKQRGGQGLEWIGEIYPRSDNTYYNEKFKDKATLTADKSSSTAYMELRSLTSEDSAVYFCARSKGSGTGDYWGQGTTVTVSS VL: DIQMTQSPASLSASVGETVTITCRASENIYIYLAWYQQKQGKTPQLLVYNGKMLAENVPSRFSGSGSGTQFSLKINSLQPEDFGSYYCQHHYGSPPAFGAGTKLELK ?
Response line: 866

These entries and their values trace back to patent US20230303681A1.
